- TESTED_ON: T1, E6AP AZUL (amino-terminal zinc-binding domain of ubiquitin E3a ligase), amino acids 24 to 87 (human, UniProt Q05086 24-87)
- T1 chain: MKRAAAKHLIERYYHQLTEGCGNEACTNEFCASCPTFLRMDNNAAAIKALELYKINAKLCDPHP
- TEST_DETAILS: ITC; Y326 phosphorylated
Where no end group is shown, it is not given here. [ ]: non-standard residue; d: D form. pY = N[C@@H](Cc1ccc(OP(=O)(O)O)cc1)C(=O)O
ASSAY_METRIC: pKd
Notebook: values listed as pKd are -log10 of the concentration (mol/L).

## Input Answer with the recorded pKd for the binder listed here: EEDD[pY]DVMQDPEFLQSVLENLPGVDPNNEAIRNAMGSLASQATKD (not fully specified) [hRpn10^322–366 peptide with Y326 phosphorylated]
## Output 6.72
